System: parental HEK cells
Assay: HEK parental Agonist Counterscreen Assay (non-transfected cells)
Assay type: cell-based
Details: HEK Agonist Activity; activity relative to known control
MEASURED_ATTRIBUTE: Averaged Max % Response (±St. Dev.) (%)
Reply numerically in %, unit not repeated.

I would be grateful if you could share the reported Averaged Max % Response (±St. Dev.) for Cc1ccc(CCNC(=O)Cn2cc3c(n2)CCCC3)cc1 [SR-01000137723] .
−4.03

What measured Averaged Max % Response (±St. Dev.) goes with COc1cccc(C(=O)NNC(=O)C(C)Oc2ccc(Cl)cc2Cl)c1 (centres unmarked) [SR-01000356497] ?
2.54

Which value of Averaged Max % Response (±St. Dev.) has been reported for CCCCNC(=O)NNC(=O)CSc1cc(C)c(Br)cc1C [SR-01000061818] in the records?
3.00

Please report the recorded Averaged Max % Response (±St. Dev.) for COc1ccc(NC(=O)NCCOc2cccc3ccccc23)cc1OC [SR-01000223498] .
15.10

# get_value(readout='Averaged Max % Response (±St. Dev.)', item= COc1cccc(C(=O)NNC(=O)CCCOc2ccc(Cl)cc2Cl)c1 [SR-01000205482] )
−5.45

Quick check: Averaged Max % Response (±St. Dev.) of COc1ccc(-c2nnn(CC(=O)NCCc3c[nH]c4ccccc34)n2)cc1OC [SR-01000339494] ?
13.92

Requested read-out: Averaged Max % Response (±St. Dev.). Entry: COc1ccc(NC(=O)NCC2CC(=O)N(c3ccccc3)C2)cc1 (centres unmarked) [SR-01000912290]
20.29

GET /values?readout=Averaged Max % Response (±St. Dev.)&item= CC(NC(=O)Cn1cc(NC(=O)c2ccccc2F)cn1)c1ccccc1Cl (centres unmarked) [SR-01000194602]
4.93

Fill in: Averaged Max % Response (±St. Dev.) of CC1CCCC(NC(=O)CN2CCCN(Cc3ccc(F)cc3Cl)C2=O)C1C (centres unmarked) [SR-01000146420] is ___
20.27

---

Biological target: GPR139 (Homo sapiens)
Sequence (Q6DWJ6 1-353): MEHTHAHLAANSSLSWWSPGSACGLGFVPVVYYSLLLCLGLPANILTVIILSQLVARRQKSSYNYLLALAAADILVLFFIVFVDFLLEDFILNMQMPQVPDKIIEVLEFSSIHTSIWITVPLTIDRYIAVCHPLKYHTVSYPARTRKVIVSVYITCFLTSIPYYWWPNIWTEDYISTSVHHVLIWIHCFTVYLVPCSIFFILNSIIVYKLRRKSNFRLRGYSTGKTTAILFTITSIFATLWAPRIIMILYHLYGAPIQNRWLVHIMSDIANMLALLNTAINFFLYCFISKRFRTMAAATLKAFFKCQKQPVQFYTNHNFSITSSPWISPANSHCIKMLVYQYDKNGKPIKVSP
Test: GPR139 Agonist titration / agonist counterscreen assay (calcium detection, HEK-GPR139 cells)
Format: cell-based
Design: expressed in transfected cells; host or cells: HEK Aequorin cells, Maxcyte transient transfection
Settings: GPR139 Agonist Activity; ligand efficiency
Reported Efficiency Ligand is given for each of the following compounds.
Number only, please.

Below are worked cases with known answers.
COMPOUND	MEASURED_ATTRIBUTE	RESULT_NUMBER
Nc1ccc(C(=O)OCC(=O)NC2CCCc3ccccc32)cc1[N+](=O)[O-] (centres unmarked) [SR-01000034627]	Efficiency Ligand	0.34
O=C(Cn1ccc([N+](=O)[O-])n1)NCCc1ccc(Cl)cc1 [SR-01000299915]	Efficiency Ligand	0.55
CN(C(=O)CN1C(=O)NC(C)(c2ccc3ccccc3c2)C1=O)C1CCCCC1 (centres unmarked) [SR-01000048373]	Efficiency Ligand	0.34
CC(C)C1CC(=O)[C@@H]2C[C@@H](CC2C(=O)CC2CCOc3ccccc3C2)C2C=CC(=C2)CCC(=O)[C@@H](Cc2ccccc2)NC1=O (some centres unmarked) [SR-05000709044]	Efficiency Ligand	0.24
CC1(c2ccc3c(c2)OCCO3)NC(=O)C(CC(=O)NCC2CCCCC2)C1=O (centres unmarked) [SR-01000074761]	Efficiency Ligand	0.34

Efficiency Ligand lookup needed for COc1ccc(CCNC(=O)Nc2ccc3c(c2)CCCN3C(=O)C2CC2)cc1 [SR-01000923125] , thanks.
0.37

Please look up its Efficiency Ligand: Cc1cccc(Cc2cnc(NC(=O)CC(C)C)s2)c1 [SR-01000071221]
0.52

Any idea what its Efficiency Ligand is? The compound is COc1ccc(NC(=O)NCCOc2cccc3ccccc23)cc1OC [SR-01000223498]
0.39

---

Target: GPR139 (Homo sapiens, UniProt Q6DWJ6)
Experiment: GPR139 Agonist titration / agonist counterscreen assay (calcium detection, HEK-GPR139 cells)
Assay type: cell-based
Parameters: expressed in transfected cells; host or cells: HEK Aequorin cells, Maxcyte transient transfection
Conditions: GPR139 Agonist Activity; fitted dose-response curve
MEASURED_ATTRIBUTE: Hill Slope
Give your answer as a number; write no unit.

MOLECULE	TARGET_DESC	Hill Slope
COc1ccc(CCC(=O)Nc2ccc(/C(N)=N/O)cc2)cc1 [SR-01000103876]	GPR139 (Homo sapiens, UniProt Q6DWJ6)	0.82
COc1ccc(C(C)N2CC34C=CC(O3)C(C(=O)OCC(C)C)C4C2=O)cc1 (centres unmarked) [SR-01000114500]	GPR139 (Homo sapiens, UniProt Q6DWJ6)	1.06
COc1ccc(CCCC(=O)c2cccc(-c3ccc(OC)cc3)c2)cc1 [SR-01000655128]	GPR139 (Homo sapiens, UniProt Q6DWJ6)	0.50

Entry O=C(CC(C(=O)N1CCc2ccccc21)n1ccnc1)N1CCCCCC1 (centres unmarked) [SR-01000144627] : reported Hill Slope = ?
1.08

Reported Hill Slope for COc1ccccc1-c1nnc(NC(=O)Cc2ccc(C)cc2C)o1 [SR-01000915644] : what is it?
0.31

Record request: Hill Slope value, item COc1ccccc1CC1(C)NC(=O)N(CC(=O)NC(C)c2cccc(Cl)c2)C1=O (centres unmarked) [SR-01000069564]
0.93

Bench note: what Hill Slope did COc1ccccc1C(=O)NNC(=O)C(C)Oc1ccc(Cl)cc1Cl (centres unmarked) [SR-01000356020] show?
0.91

Given the molecule COc1ccc(NC(=O)NCCOc2cccc3ccccc23)cc1OC [SR-01000223498] , what is its reported Hill Slope?
0.81

---

Biological target: GPR139 (Homo sapiens, UniProt Q6DWJ6)
Sequence (Q6DWJ6 1-353): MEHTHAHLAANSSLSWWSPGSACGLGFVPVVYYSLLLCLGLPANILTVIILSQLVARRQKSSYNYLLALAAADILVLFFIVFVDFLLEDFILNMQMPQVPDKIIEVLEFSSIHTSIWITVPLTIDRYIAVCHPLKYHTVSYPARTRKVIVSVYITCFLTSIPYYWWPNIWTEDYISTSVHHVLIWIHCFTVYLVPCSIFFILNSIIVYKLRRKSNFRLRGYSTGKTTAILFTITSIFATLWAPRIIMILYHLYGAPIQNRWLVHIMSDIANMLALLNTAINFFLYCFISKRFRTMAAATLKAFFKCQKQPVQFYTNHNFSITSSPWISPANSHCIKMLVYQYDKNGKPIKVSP
Test: GPR139 Agonist titration / agonist counterscreen assay (calcium detection, HEK-GPR139 cells)
Format: cell-based
Design: expressed in transfected cells; host or cells: HEK Aequorin cells, Maxcyte transient transfection
Conditions: GPR139 Agonist Activity
# Hill Slope per record follows
Number only, no unit.

MOLECULE	MEASURED_ATTRIBUTE	RESULT_NUMBER
CC(=O)N1CCSc2cc(S(=O)(=O)NC3CCC(C)CC3)ccc21 (stereo not drawn) [SR-01000141798]	Hill Slope	0.65
CCCCC(O)CCNC(=O)C1CC(=O)N(CCc2ccc(C)cc2)C1 (stereo not drawn) [SR-01000145701]	Hill Slope	0.99
COC(=O)c1ccc(NC(=O)CNC(=O)C2CCCCC2)c(C)c1 [SR-01000246445]	Hill Slope	1.22
O=C(NCCS(=O)(=O)N1CCc2ccccc2C1)C(c1ccccc1)c1ccccc1 [SR-01000911742]	Hill Slope	0.32

What measured Hill Slope goes with COc1ccc2cc(C3(C)CC(=O)N(CC(=O)N(CC(C)C)CC(C)C)C3=O)ccc2c1 (stereo not drawn) [SR-01000054961] ?
0.85

---

Biological target: UniProt:Q6DWJ6
Experiment: GPR139 Agonist titration / agonist counterscreen assay (calcium detection, HEK-GPR139 cells)
Assay type: cell-based
Set-up: expressed in transfected cells; host or cells: HEK Aequorin cells, Maxcyte transient transfection
Details: GPR139 Agonist Activity; HEK-GPR139 cells; read-out: EC50
# pEC50 values compiled below
Scale explanation: pEC50 corresponds to minus log10 of a concentration expressed in moles per litre.

Sample answers from the record:
MOLECULE	pEC50
CS(=O)(=O)c1cccc(C(=O)NCCCN2CCc3ccccc32)c1 [SR-01000387617]	6.18
O=C(Cn1ccc2ccccc21)NCCCC(=O)Nc1cccc2cccnc12 [SR-01000926510]	6.31
O=C(CN1C(=O)OC(O)(c2ccc(Cl)cc2Cl)C1=O)Nc1ccccc1Cl (centres unmarked) [SR-01000062419]	6.36

Reported pEC50 for CNc1ccc(CCNC(=O)Cn2c3ccccc3c3nc(=O)cc(C)n32)cc1 [SR-01000139601] : what is it?
6.38

Reported pEC50 for CCCCC(=O)OCC(=O)NCc1ccc(C)cc1 [SR-01000042109] : what is it?
6.44

// pEC50 lookup, key: O=C(Cn1ncc2c1-c1ccccc1OC2)Nc1ccc(CCO)cc1 [SR-01000098914]
6.33
